inhibition at 20 µM overview
# target.under.test: EeAChE PAS (Electrophorus electricus, UniProt O42275)
# Construct: purchased Sigma-Aldrich type VI-S; host or cells: electric eel
# Sequence (O42275 24-633): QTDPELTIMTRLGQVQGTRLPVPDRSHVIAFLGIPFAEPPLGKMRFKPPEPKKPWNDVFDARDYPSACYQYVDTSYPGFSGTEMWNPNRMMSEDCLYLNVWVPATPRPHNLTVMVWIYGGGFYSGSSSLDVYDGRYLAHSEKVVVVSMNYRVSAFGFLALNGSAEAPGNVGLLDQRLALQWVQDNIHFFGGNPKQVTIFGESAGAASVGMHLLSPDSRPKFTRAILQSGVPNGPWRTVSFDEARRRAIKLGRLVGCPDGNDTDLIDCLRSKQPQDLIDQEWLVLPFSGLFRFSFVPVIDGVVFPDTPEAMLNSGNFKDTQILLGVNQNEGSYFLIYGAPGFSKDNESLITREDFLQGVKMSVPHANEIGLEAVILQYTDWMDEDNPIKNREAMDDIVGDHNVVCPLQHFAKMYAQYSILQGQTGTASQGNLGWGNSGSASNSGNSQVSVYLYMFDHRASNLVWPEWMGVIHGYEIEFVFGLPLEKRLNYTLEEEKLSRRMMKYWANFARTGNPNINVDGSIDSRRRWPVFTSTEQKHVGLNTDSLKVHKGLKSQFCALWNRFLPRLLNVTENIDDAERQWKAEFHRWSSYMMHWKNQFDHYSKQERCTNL
# method: biochemical
# Type: binding
# run.parameters: 0.25 h; compound 20 μM, EeAChE 7 μM, propidium iodide 8 μM; n.a. = not active; read-out: % Displacement of Propidium from the EeAChE PAS at 20 μM
Record the value in %, omitting the unit from your answer.

C/C(NCCCCCCCCNc1c2c(nc3ccccc13)CCCC2)=C(/N=N/c1ccc(C)cc1)C(=O)C(F)(F)F	16.2
CC(=O)C(/N=N/c1ccc(C)cc1)=C(\C)NCCCCCCNc1c2c(nc3ccccc13)CCCC2	19

In plain terms, CC(=O)C(/N=N/c1ccc(C)cc1)=C(\C)NCCCCNc1c2c(nc3ccccc13)CCCC2 has a documented inhibition at 20 µM of 15.6

In plain terms, C/C(NCCCCCCCCNc1c2c(nc3ccccc13)CCCC2)=C(/N=N/c1ccc(C)cc1)C(=O)c1ccccc1 has a documented inhibition at 20 µM of 14.1

In plain terms, CC(=O)C(/N=N/c1ccc(C)cc1)=C(\C)NCCCCCCCCNc1c2c(nc3ccccc13)CCCC2 has a documented inhibition at 20 µM of 17.8

* * *

# Test system: porcine liver CES
# method: CES inhibition, 4-nitrophenyl acetate hydrolysis
# run.parameters: compound 20 μM; mean ± SEM, n = 3; n.a. = not active
parameter.measured: Inhibitory activity against CES, % inhibition at 20 μM (%)
Record the value in %, omitting the unit from your answer.

Consider the following illustrative entries.
C/C(NCCCCCCNc1c2c(nc3ccccc13)CCCC2)=C(/N=N/c1ccc(C)cc1)C(=O)c1ccccc1 [7b]	33.2
CC(=O)C(/N=N/c1ccc(C)cc1)=C(\C)NCCCCCCCCNc1c2c(nc3ccccc13)CCCC2 [6c]	30.1
C/C(NCCCCCCCCNc1c2c(nc3ccccc13)CCCC2)=C(/N=N/c1ccc(C)cc1)C(=O)c1ccccc1 [7c]	23.4
C/C(NCCCCNc1c2c(nc3ccccc13)CCCC2)=C(/N=N/c1ccc(C)cc1)C(=O)C(F)(F)F [8a]	28.6
C/C(NCCCCCCCCNc1c2c(nc3ccccc13)CCCC2)=C(/N=N/c1ccc(C)cc1)C(=O)C(F)(F)F [8c]	12.2
C/C(NCCCCNc1c2c(nc3ccccc13)CCCC2)=C(/N=N/c1ccc(C)cc1)C(=O)c1ccccc1 [7a]	31.2
CC(=O)C(/N=N/c1ccc(C)cc1)=C(\C)NCCCCCCNc1c2c(nc3ccccc13)CCCC2 [6b]	29.0
C/C(NCCCCCCNc1c2c(nc3ccccc13)CCCC2)=C(/N=N/c1ccc(C)cc1)C(=O)C(F)(F)F [8b]	19.9

API: the following record is the query input.
In plain terms, CC(=O)C(/N=N/c1ccc(C)cc1)=C(\C)NCCCCNc1c2c(nc3ccccc13)CCCC2 [6a] has a documented Inhibitory activity against CES, % inhibition at 20 μM of 23.3

* * *

inhibition at 20 µM overview
# target.under.test: EeAChE PAS (Electrophorus electricus, UniProt O42275)
# Construct: purchased Sigma-Aldrich type VI-S; host or cells: electric eel
# method: biochemical
# Type: binding
# run.parameters: 0.25 h; compound 20 μM, EeAChE 7 μM, propidium iodide 8 μM; n.a. = not active; read-out: % Displacement of Propidium from the EeAChE PAS at 20 μM
Record the value in %, omitting the unit from your answer.

Consider the following illustrative entries.
C/C(NCCCCCCNc1c2c(nc3ccccc13)CCCC2)=C(/N=N/c1ccc(C)cc1)C(=O)C(F)(F)F [8b]	14.4
C/C(NCCCCNc1c2c(nc3ccccc13)CCCC2)=C(/N=N/c1ccc(C)cc1)C(=O)C(F)(F)F [8a]	13.7
C/C(NCCCCNc1c2c(nc3ccccc13)CCCC2)=C(/N=N/c1ccc(C)cc1)C(=O)c1ccccc1 [7a]	11.9

API: the following record is the query input.
In plain terms, C/C(NCCCCCCNc1c2c(nc3ccccc13)CCCC2)=C(/N=N/c1ccc(C)cc1)C(=O)c1ccccc1 [7b] has a documented inhibition at 20 µM of 15.5

* * *

IC50 overview
# target.under.test: Human erythrocyte AChE (Homo sapiens, UniProt P22303)
# Sequence (P22303 32-617 isoform P22303-2 limits assumed): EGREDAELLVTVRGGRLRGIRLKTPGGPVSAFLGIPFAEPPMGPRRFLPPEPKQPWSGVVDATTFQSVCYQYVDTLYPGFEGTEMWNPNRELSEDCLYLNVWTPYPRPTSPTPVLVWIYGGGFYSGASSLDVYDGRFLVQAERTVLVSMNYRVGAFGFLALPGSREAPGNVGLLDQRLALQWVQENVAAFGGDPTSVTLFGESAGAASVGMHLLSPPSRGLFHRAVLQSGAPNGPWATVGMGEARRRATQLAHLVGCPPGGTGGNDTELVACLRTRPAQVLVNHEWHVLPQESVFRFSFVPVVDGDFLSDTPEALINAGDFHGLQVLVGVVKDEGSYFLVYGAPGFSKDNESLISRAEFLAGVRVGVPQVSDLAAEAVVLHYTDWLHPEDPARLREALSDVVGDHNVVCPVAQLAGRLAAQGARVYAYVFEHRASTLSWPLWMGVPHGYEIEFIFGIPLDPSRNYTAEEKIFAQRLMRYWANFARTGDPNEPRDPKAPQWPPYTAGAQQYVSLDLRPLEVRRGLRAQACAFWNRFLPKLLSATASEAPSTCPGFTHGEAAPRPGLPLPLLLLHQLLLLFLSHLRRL
# method: biochemical
# run.parameters: human erythrocyte AChE; 5 min incubation, 25 °C, pH 7.5; mean ± SEM, n = 3; read-out: Inhibitory activity against AChE, IC50
Record the value in µM, omitting the unit from your answer.

C/C(NCCCCNc1c2c(nc3ccccc13)CCCC2)=C(/N=N/c1ccc(C)cc1)C(=O)C(F)(F)F [8a]	1.69
CC(=O)C(/N=N/c1ccc(C)cc1)=C(\C)NCCCCCCNc1c2c(nc3ccccc13)CCCC2 [6b]	0.342
C/C(NCCCCCCNc1c2c(nc3ccccc13)CCCC2)=C(/N=N/c1ccc(C)cc1)C(=O)c1ccccc1 [7b]	0.38
CC(=O)C(/N=N/c1ccc(C)cc1)=C(\C)NCCCCNc1c2c(nc3ccccc13)CCCC2 [6a]	1.39

API: the following record is the query input.
In plain terms, C/C(NCCCCNc1c2c(nc3ccccc13)CCCC2)=C(/N=N/c1ccc(C)cc1)C(=O)c1ccccc1 [7a] has a documented IC50 of 0.889

* * *

IC50 overview
# target.under.test: equine serum BChE (Equus caballus)
# Sequence (P81908 whole entry): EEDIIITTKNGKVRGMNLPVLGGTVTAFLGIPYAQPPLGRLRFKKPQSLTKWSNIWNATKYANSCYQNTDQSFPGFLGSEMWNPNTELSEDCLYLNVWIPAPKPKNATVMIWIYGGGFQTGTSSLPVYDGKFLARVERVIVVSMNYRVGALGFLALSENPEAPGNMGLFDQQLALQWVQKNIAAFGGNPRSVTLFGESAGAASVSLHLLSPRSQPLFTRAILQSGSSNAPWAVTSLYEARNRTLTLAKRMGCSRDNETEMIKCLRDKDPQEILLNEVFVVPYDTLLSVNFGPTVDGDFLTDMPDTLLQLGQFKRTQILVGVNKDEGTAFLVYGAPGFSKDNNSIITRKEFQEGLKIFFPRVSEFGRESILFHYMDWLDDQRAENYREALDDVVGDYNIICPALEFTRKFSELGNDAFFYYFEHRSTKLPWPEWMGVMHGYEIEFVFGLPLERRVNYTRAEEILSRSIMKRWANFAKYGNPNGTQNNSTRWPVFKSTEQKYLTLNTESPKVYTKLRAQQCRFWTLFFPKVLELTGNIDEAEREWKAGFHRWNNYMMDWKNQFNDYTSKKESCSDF
# method: biochemical
# run.parameters: equine serum BChE; 5 min incubation, 25 °C, pH 7.5; mean ± SEM, n = 3; read-out: Inhibitory activity against BChE, IC50
Record the value in µM, omitting the unit from your answer.

Consider the following illustrative entries.
CC(=O)C(/N=N/c1ccc(C)cc1)=C(\C)NCCCCNc1c2c(nc3ccccc13)CCCC2	0.139
C/C(NCCCCCCCCNc1c2c(nc3ccccc13)CCCC2)=C(/N=N/c1ccc(C)cc1)C(=O)c1ccccc1	0.0745
C/C(NCCCCCCNc1c2c(nc3ccccc13)CCCC2)=C(/N=N/c1ccc(C)cc1)C(=O)C(F)(F)F	0.125

For the molecule C/C(NCCCCNc1c2c(nc3ccccc13)CCCC2)=C(/N=N/c1ccc(C)cc1)C(=O)C(F)(F)F , the measured IC50 on equine serum BChE (Equus caballus) was 0.246

For the molecule C/C(NCCCCCCCCNc1c2c(nc3ccccc13)CCCC2)=C(/N=N/c1ccc(C)cc1)C(=O)C(F)(F)F , the measured IC50 on equine serum BChE (Equus caballus) was 0.0985

For the molecule C/C(NCCCCCCNc1c2c(nc3ccccc13)CCCC2)=C(/N=N/c1ccc(C)cc1)C(=O)c1ccccc1 , the measured IC50 on equine serum BChE (Equus caballus) was 0.047

For the molecule CC(=O)C(/N=N/c1ccc(C)cc1)=C(\C)NCCCCCCNc1c2c(nc3ccccc13)CCCC2 , the measured IC50 on equine serum BChE (Equus caballus) was 0.138

For the molecule CCCCCCN/C(C)=C(\N=N\c1ccc(C)cc1)C(C)=O , the measured IC50 on equine serum BChE (Equus caballus) was 18.1
